Exercise: for every item that follows, state its recorded MIC.
Tested on: Pseudomonas aeruginosa (395)
Experiment description: minimum growth inhibitory concentration (MIC) method
Type: cell-based
Details: P. aeruginosa 395, HIA medium, 37° C., 18 hours, sodium salts

For Cc1nnc(SCC2=C(C(=O)O)N3C(=O)[C@@H](NC(=O)Cn4cnnn4)[C@H]3SC2)s1 [CEZ, reference compound] , what is its reported MIC?
> 100 µg/mL

And the next one, CC1(C)S[C@@H]2[C@H](NC(=O)C(C(=O)O)c3ccccc3)C(=O)N2[C@H]1C(=O)O (stereo partly drawn) [CB-PC, disodium-α-carboxybenzyl penicillin, reference compound] ?
25 µg/mL

And the next one, Cn1nnnc1SCC1=C(C(=O)O)N2C(=O)C(NC(=O)[C@H](NC(=O)c3cnc4c(c3O)C(=O)CCC4)c3ccccc3)C2SC1 (single isomer, unassigned) [Synthesis Example 1] ?
3.13 µg/mL

And the next one, Cn1nnnc1SCC1=C(C(=O)O)N2C(=O)C(NC(=O)[C@H](NC(=O)c3cnc4c(c3O)C(=O)CCC4)c3ccc(O)cc3)C2SC1 (single isomer, unassigned) [Synthesis Example 2] ?
1.56 µg/mL
